The entries below come with measured kon values attached.
Target: T1, TNFR2-His (Sino Biological, 10417-H08H, NP_001057.1 Met1-Asp257, with multi-histidine tag expressed on … (human, UniProt P20333 23-257))
T1 construct: range 1-257; Bought protein; also called recombinant human TNFR2 protein; TNFR2-His antigen; not shown: C-terminal multi-histidine tag
T1 sequence (looked up): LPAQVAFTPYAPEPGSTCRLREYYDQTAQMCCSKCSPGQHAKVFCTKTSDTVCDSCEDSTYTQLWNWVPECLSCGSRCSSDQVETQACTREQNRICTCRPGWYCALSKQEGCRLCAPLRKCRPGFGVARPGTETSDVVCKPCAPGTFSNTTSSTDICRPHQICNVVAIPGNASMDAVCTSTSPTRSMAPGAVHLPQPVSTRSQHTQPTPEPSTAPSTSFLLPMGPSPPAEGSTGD
Assay: BLI, antibody captured on AHC probe, TNFR2 in solution
Provide only the numeric value, understood in M⁻¹ s⁻¹.

# BINDER, ATTRIBUTE MEASURED, ENDPOINT VALUE
records = [
    ("12E12huVH3 + huVL2(P07282) (antibody, V domains shown, Humanized 12E12) VH: QVQLVQSGAEVKKPGASVKVSCKVSGFNIKDFYIHWVRQAPGKGLEWMGRVDPEDGNTEYAQKFQGRVTMTTDTSTDTAYMELSSLRSEDTAVYYCSTWDGFSYFDYWGQGTTVTVSS VL: QAVVTQEPSLTVSPGGTVTLTCRSSTGPVTTNNYANWVQQKPGQAFRGLIGGTNDRAPGVPARFSGSLLGGKAALTLSGAQPEDEAEYYCALWYRNHWVFGGGTKLTVL", "kon", 764000),
]

In: Quickly give me recorded kon for 12E12-huVH8 + huVL2(P08939) (antibody, V domains shown, Humanized 12E12) VH: EVQLVQSGAEVKKPGATVKISCKVSGYTITDFYIHWVQQAPGKGLEWMGRVDPEDGNTEYAPNFQDRVTITADTSTDTAYMELSSLRSEDTAVYYCSTWDGFSYFDYWGQGTTVTVSS VL: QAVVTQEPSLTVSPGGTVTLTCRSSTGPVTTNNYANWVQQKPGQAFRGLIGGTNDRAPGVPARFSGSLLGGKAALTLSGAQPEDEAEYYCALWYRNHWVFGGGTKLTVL
Out: 1.13e+06

In: Quickly give me recorded kon for 12E12huVH5 + huVL4(P07292) (antibody, V domains shown, Humanized 12E12) VH: EVQLVQSGAEVKKPGATVKISCKVSGFNIKDFYIHWVQQAPGKGLEWIGRVDPEDGNTEYAEKFQGRVTITADTSTDTAYMELSSLRSEDTAVYYCSTWDGFSYFDYWGQGTTVTVSS VL: EAVVTQSPATLSLSPGERATLSCRSSTGPVTTNNYANWVQQKPGQAFRGLIGGTNDRAPGIPARFSGSGSGTDTTLTISSLQPEDFAVYYCALWYRNHWVFGGGTKLEIK
Out: 1.08e+06
